Record form. Attribute: IC50. Fill in for each entry.
- Test system: Human immunodeficiency virus 1
- procedure_text: Antiviral activity against HIV1 harboring reverse transcriptase K103N/L100I double mutant infected in human MT4 cells assessed as reduction of virus-induced cytopathic effect by replication assay in presence of 10% FBS
- Format: functional, organism-based
- particulars: Human immunodeficiency virus 1, MT4

What value of IC50 has been reported for the following molecule? O=C1Nc2ccc(Cl)cc2[C@@](C#CC2CC2)(C(F)(F)F)O1 [EFAVIRENZ]
> 100 nM

So what's the measured IC50 for this one? `Cc1cc(C#N)cc(C)c1Oc1nc(NC2CCN(Cc3ccc(S(N)(=O)=O)cc3Cl)CC2)ncc1Br`
5.9 nM

Please give the measured IC50 for this molecule: `Cc1cnc(NC2CCN(c3cccc(C(N)=O)c3)CC2)nc1Oc1c(C)cc(C#N)cc1Cl`
7.4 nM

Sample `Cc1cc(C#N)cc(Cl)c1Oc1ccnc(NC2CCN(c3cccc(C(N)=O)c3)CC2)n1` — what was its IC50?
42 nM

Please look up its IC50: `Cc1cc(C#N)cc(F)c1Oc1nc(NC2CCN(c3cccc(C(N)=O)c3)CC2)ncc1Br`
18.4 nM

Given the entry `Cc1cc(C#N)cc(C)c1Nc1nc(NC2CCN(c3cccc(C(N)=O)c3)CC2)ncc1Br` , report its measured IC50.
10.8 nM

GET /values?readout=IC50&item= `Cc1cc(C#N)cc(Cl)c1Nc1nc(NC2CCN(c3cccc(C(N)=O)c3)CC2)ncc1Br`
2.9 nM

Recorded IC50 for `Cc1cnc(NC2CCN(c3cccc(C(N)=O)c3)CC2)nc1Oc1c(C)cc(C#N)cc1C` , please?
6.7 nM

So what's the measured IC50 for this one? `Cc1cc(C#N)cc(C)c1Nc1ccnc(NC2CCN(c3cccc(C(N)=O)c3)CC2)n1`
> 100 nM

* * *

Could you please report measured pIC50 for the items listed next?
- target_under_test: Human immunodeficiency virus type 1 reverse transcriptase (Human immunodeficiency virus 1)
- procedure_text: Inhibition of HIV1 recombinant wild type reverse transcriptase by SPA heteropolymeric assay
Please express pIC50 as -log10 of the molar concentration.

pIC50 for `Cc1cc(C#N)cc(C)c1Oc1nc(NC2CCN(c3ccccc3C(N)=O)CC2)ncc1Br` ?
7.49

Quick one: pIC50 of `Cc1cc(C#N)cc(C)c1Nc1ccnc(NC2CCN(c3cccc(C(N)=O)c3)CC2)n1` ?
7.64

Bench note: what pIC50 did `Cc1cc(C#N)cc(Cl)c1Oc1ccnc(NC2CCN(c3cccc(C(N)=O)c3)CC2)n1` show?
8.10

Look up pIC50 for this molecule: `Cc1cc(C#N)cc(C)c1Oc1ccnc(NC2CCN(c3cccc(C#N)c3)CC2)n1`
7.29

Give the measured pIC50 of `COc1cc(C#N)cc(C)c1Oc1ccnc(NC2CCN(c3cccc(C(N)=O)c3)CC2)n1` .
7.74

pIC50 for `Cc1cc(C#N)cc(C)c1Oc1ccnc(NC2CCN(c3cccc(C(N)=O)c3)CC2)n1` ?
8.15

Which value of pIC50 has been reported for `Cc1cc(C#N)cc(Cl)c1Nc1ccnc(NC2CCN(c3cccc(C(N)=O)c3)CC2)n1` in the records?
7.44

Consider the molecule shown here: `Cc1cc(C#N)cc(C)c1Oc1nc(NC2CCN(c3cccc(C(N)=O)c3)CC2)ncc1N` What is its recorded pIC50?
7.72

Tell me the measured pIC50 of `COc1cc(C#N)cc(C)c1Oc1nc(NC2CCN(c3cccc(C(N)=O)c3)CC2)ncc1Br` , please.
7.25

Return reported pIC50; argument: `Cc1cc(C#N)cc(C)c1Oc1nc(NC2CCN(c3cccc(C(N)=O)c3)CC2)ncc1[N+](=O)[O-]`
6.96

What pIC50 value was documented for this molecule, `Cc1cc(C#N)cc(C)c1Oc1ccnc(NC2CCN(c3cccc(S(N)(=O)=O)c3)CC2)n1` ?
7.82

// pIC50 lookup, key: `Cc1cc(C#N)cc(C)c1Oc1nc(NC2CCN(c3cccc(C(N)=O)c3)CC2)ncc1F`
7.85

May I ask what pIC50 has been recorded for `Cc1cnc(NC2CCN(c3cccc(C(N)=O)c3)CC2)nc1Oc1c(C)cc(C#N)cc1Cl` ?
8.22

pIC50 for `Cc1cc(C#N)cc(C)c1Oc1ccnc(NC2CCN(c3ccc(S(N)(=O)=O)cc3)CC2)n1` ?
7.62

Report pIC50 for `Cc1cc(C#N)cc(C)c1Oc1nc(NC2CCN(c3cccc(C(=O)O)c3)CC2)ncc1Br` please.
7.80

Can you look up the measured pIC50 of `Cc1cc(C#N)cc(Cl)c1Nc1nc(NC2CCN(c3cccc(C(N)=O)c3)CC2)ncc1Br` for me?
7.82

Requested read-out: pIC50. Entry: `Cc1cc(C#N)cc(C)c1Oc1nc(NC2CCN(c3cccc(C(N)=O)c3)CC2)ncc1Br`
7.72

Sample `Cc1cc(C#N)cc(Cl)c1Oc1nc(NC2CCN(c3cccc(C(N)=O)c3)CC2)ncc1Cl` — what was its pIC50?
7.70

Reported pIC50, molecule `Cc1cc(C#N)cc(C)c1Oc1ccnc(NC2CCN(c3cccc(S(C)(=O)=O)c3)CC2)n1` : ____
7.96

Query (molecule): `Cc1cc(C#N)cc(C)c1Nc1nc(NC2CCN(c3cccc(C(N)=O)c3)CC2)ncc1Br` ; field requested: pIC50
7.72

Sample `COc1cc(C#N)cc(C)c1Oc1nc(NC2CCN(c3cccc(C(N)=O)c3)CC2)ncc1C` — what was its pIC50?
7.68

Can you share its pIC50? I mean this molecule: `Cc1cc(C#N)cc(C)c1Oc1nc(NC2CCN(c3cccc(C(N)=O)c3)CC2)ncc1C(F)(F)F`
7.07

What value of pIC50 has been recorded for this entry: `Cc1cnc(NC2CCN(c3cccc(C(N)=O)c3)CC2)nc1Oc1c(C)cc(C#N)cc1C`
7.92

I have this molecule here, `Cc1cc(C#N)cc(C)c1Oc1ccnc(NC2CCN(c3cc(Cl)cc(C(N)=O)c3)CC2)n1` , and I need its recorded pIC50.
7.55

Bench note: what pIC50 did `Cc1cc(C#N)cc(C)c1Oc1nc(NC2CCN(c3cccc(C#N)c3)CC2)ncc1Br` show?
6.99

Consider the molecule shown here: `Cc1cc(C#N)cc(C)c1Oc1nc(NC2CCN(c3ccc(C(N)=O)cc3)CC2)ncc1Br` What is its recorded pIC50?
7.62

What pIC50 value was documented for this molecule, `Cc1cc(C#N)cc(C)c1Oc1ccnc(NC2CCN(c3ccc(Cl)c(C(N)=O)c3)CC2)n1` ?
8.05

What value of pIC50 has been recorded for this entry: `Cc1cc(C#N)cc(C)c1Oc1nc(NC2CCN(c3cccc(S(C)(=O)=O)c3)CC2)ncc1Br`
7.38

pIC50 lookup needed for `Cc1cc(C#N)cc(C)c1Oc1nc(NC2CCN(c3cccc(C(N)=O)c3)CC2)ncc1Cl` , thanks.
7.62

I would be grateful if you could share the reported pIC50 for `Cc1cc(C#N)cc(Cl)c1Oc1nc(NC2CCN(c3cccc(C(N)=O)c3)CC2)ncc1Br` .
7.55

Item under review: `Cc1cc(C#N)cc(C)c1Oc1nc(NC2CCN(c3cccc(S(N)(=O)=O)c3)CC2)ncc1Br` . Reported pIC50?
7.72

Look up pIC50: `Cc1cc(C#N)cc(F)c1Oc1nc(NC2CCN(c3cccc(C(N)=O)c3)CC2)ncc1Br`
8.22

What measured pIC50 goes with `Cc1cc(C#N)cc(C)c1Oc1nc(NC2CCN(c3cc(C(N)=O)ccc3Cl)CC2)ncc1Br` ?
7.12

Quick one: pIC50 for `COc1cc(C#N)cc(C)c1Oc1nc(NC2CCN(c3cccc(C(N)=O)c3)CC2)ncc1Cl` ?
7.72

* * *

- System: Human immunodeficiency virus 1
- procedure_text: Antiviral activity against HIV1 harboring reverse transcriptase K103N/Y181C double mutant infected in human MT4 cells assessed as reduction of virus-induced cytopathic effect by replication assay in presence of 10% FBS
- Format: functional, organism-based
- particulars: Human immunodeficiency virus 1, MT4
readout_type: IC50 (nM)
Reply with just the number (in nM).

Reported IC50, compound `Cc1cc(C#N)cc(C)c1Nc1ccnc(NC2CCN(c3cccc(C(N)=O)c3)CC2)n1` : ____
15.2

Dear colleague, I am looking for the recorded IC50 of the following compound: `Cc1cc(C#N)cc(Cl)c1Nc1nc(NC2CCN(c3cccc(C(N)=O)c3)CC2)ncc1Br`
4.9

Which measured IC50 value corresponds to O=C1Nc2ccc(Cl)cc2[C@@](C#CC2CC2)(C(F)(F)F)O1 [EFAVIRENZ] ?
82.8

Given `Cc1cc(C#N)cc(F)c1Oc1nc(NC2CCN(c3cccc(C(N)=O)c3)CC2)ncc1Br` , state its recorded IC50.
28

Reported IC50 for `Cc1cnc(NC2CCN(c3cccc(C(N)=O)c3)CC2)nc1Oc1c(C)cc(C#N)cc1Cl` : what is it?
5.5

# get_value(readout='IC50', item= `Cc1cnc(NC2CCN(c3cccc(C(N)=O)c3)CC2)nc1Oc1c(C)cc(C#N)cc1C` )
3.8

I'd like to know its IC50. The compound in question is Cc1cc(C#N)cc(C)c1Oc1nc(Nc2ccc(C#N)cc2)nc(N)c1Br [ETRAVIRINE]
9.2

For `Cc1cc(C#N)cc(C)c1Nc1nc(NC2CCN(c3cccc(C(N)=O)c3)CC2)ncc1Br` , what is its reported IC50?
11.7

Look up IC50 for this compound: `Cc1cc(C#N)cc(Cl)c1Oc1ccnc(NC2CCN(c3cccc(C(N)=O)c3)CC2)n1`
5.3

Quick one: IC50 of `Cc1cc(C#N)cc(C)c1Oc1nc(NC2CCN(Cc3ccc(S(N)(=O)=O)cc3Cl)CC2)ncc1Br` ?
7.3

Reference source: ChEMBL document CHEMBL1255200
